// data source = patent US10035766B2

- protocolText: Rat pharmacokinetics
- Type: in vivo, rats
- conditionInfo: male, Sprague-Dawley, plasma, po, 100 mg/kg, PO 100 mg/kg free base, AUC0-24 hr
measuredAttribute: AUC(0-t) (ng·h/mL)

CC(F)[C@H]1CNC[C@@H](O)[C@@H]1O (single isomer, unassigned)    59500

====

- system: recombinant human GCase (rhGCase; Cerezyme®) (Homo sapiens, UniProt P04062, R534H)
- Construct: purchased Genzyme Corp
- Sequence (P04062 40-536 R534H): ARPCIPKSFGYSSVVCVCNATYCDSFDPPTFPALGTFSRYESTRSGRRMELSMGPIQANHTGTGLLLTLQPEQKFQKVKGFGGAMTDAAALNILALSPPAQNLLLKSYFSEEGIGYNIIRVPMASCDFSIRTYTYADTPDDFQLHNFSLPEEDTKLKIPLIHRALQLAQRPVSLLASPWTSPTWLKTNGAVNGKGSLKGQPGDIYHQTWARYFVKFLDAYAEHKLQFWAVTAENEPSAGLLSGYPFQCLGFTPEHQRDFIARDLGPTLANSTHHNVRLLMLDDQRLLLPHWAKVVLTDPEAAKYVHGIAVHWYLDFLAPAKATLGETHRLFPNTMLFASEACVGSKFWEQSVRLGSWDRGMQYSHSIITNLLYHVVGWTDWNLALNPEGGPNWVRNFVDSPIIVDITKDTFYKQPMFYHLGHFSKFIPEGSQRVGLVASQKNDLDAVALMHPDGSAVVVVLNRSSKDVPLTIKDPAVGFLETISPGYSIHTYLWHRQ
- protocolText: In vitro enzyme inhibition assay (4-MU-β-D-Glc hydrolysis) for IC50 and Ki
- Type: biochemical
- conditionInfo: pH 5.2 (lysosomal pH); read-out: IC50 (μM) pH 5.2
Counter-ions that a name gives are not always drawn.
measuredAttribute: IC50

C[C@H](F)[C@H]1CNC[C@@H](O)[C@@H]1O [Compound 13, Hydrochloride]    0.0946 µM
C[C@@H](F)[C@H]1CNC[C@@H](O)[C@@H]1O [Compound 14, Hydrochloride]    0.038 µM
C[C@@H](O)[C@H]1CNC[C@@H](O)[C@@H]1O [Compound 9]    0.107 µM
